target: Rap guanine nucleotide exchange factor 4 (Homo sapiens); assay: Confirmatory qHTS for antagonist of cAMP-regulated guanine nucleotide exchange factor 4 (EPAC2) (AID 1645885); details: EPAC2 Rap1B-BODIPY-GDP exchange fluorescence, biochemical; series mostly up to 12.7 µM; note: nearly all actives have a fitted effect of over 25% in size
Records with an inconclusive call do not appear. Active and inactive are the calls of the source. Calls come from the whole dose curve; as a rule, active = well fitted inhibition curve with a large enough effect; inconclusive = small, poorly fitted or top-dose-only effect; inactive = no such curve, though single readings can be large or run the other way.
Outcome codes: active, inactive

[
  {
    "Compound": "CC(C)O/C(=N\\S(=O)(=O)c1ccc(Cl)cc1)c1ccccc1",
    "Experimental target": "Rap guanine nucleotide exchange factor 4 (Homo sapiens)",
    "Label": "active"
  },
  {
    "Compound": "COc1ccccc1NC(=O)C(C)OC(=O)COc1cccc2c1OC(C)(C)C2 (stereo not drawn)",
    "Experimental target": "Rap guanine nucleotide exchange factor 4 (Homo sapiens)",
    "Label": "inactive"
  },
  {
    "Compound": "CC(C)CC1C(=O)N(Cc2cn(CCC3OCCCO3)nn2)CCS(=O)(=O)N1Cc1ccc(-c2ccccc2)cc1 (stereo not drawn)",
    "Experimental target": "Rap guanine nucleotide exchange factor 4 (Homo sapiens)",
    "Label": "inactive"
  },
  {
    "Compound": "COCCCn1c(-c2ccccc2)nc2ccccc2c1=O",
    "Experimental target": "Rap guanine nucleotide exchange factor 4 (Homo sapiens)",
    "Label": "inactive"
  },
  {
    "Compound": "O=C1CSC2(C(=O)N(Cc3cccc(C(F)(F)F)c3)c3ccccc32)N1c1ccc(F)c(F)c1 (stereo not drawn)",
    "Experimental target": "Rap guanine nucleotide exchange factor 4 (Homo sapiens)",
    "Label": "inactive"
  },
  {
    "Compound": "C=CCn1c(CSCc2ccc(Cl)cc2Cl)nnc1SCC(=O)Nc1ccc(C(=O)O)cc1",
    "Experimental target": "Rap guanine nucleotide exchange factor 4 (Homo sapiens)",
    "Label": "inactive"
  },
  {
    "Compound": "O=C(C[n+]1cccc2cc(Cl)ccc21)c1ccc(Br)cc1",
    "Experimental target": "Rap guanine nucleotide exchange factor 4 (Homo sapiens)",
    "Label": "inactive"
  },
  {
    "Compound": "O=[N+]([O-])c1cc2ccccc2c(O)c1O",
    "Experimental target": "Rap guanine nucleotide exchange factor 4 (Homo sapiens)",
    "Label": "inactive"
  },
  {
    "Compound": "CC1(C)CC(=O)C2=C(C1)c1c(ccc3ccccc13)NC2c1cc([N+](=O)[O-])cc([N+](=O)[O-])c1O (stereo not drawn)",
    "Experimental target": "Rap guanine nucleotide exchange factor 4 (Homo sapiens)",
    "Label": "active"
  },
  {
    "Compound": "CC[C@H]1C(c2ccc(F)cc2)=NN(c2ccccc2)[C@@H]1CO",
    "Experimental target": "Rap guanine nucleotide exchange factor 4 (Homo sapiens)",
    "Label": "inactive"
  },
  {
    "Compound": "CCOC(=O)C1CCCCN1Cc1cn(C)nc1-c1ccccc1F (stereo not drawn)",
    "Experimental target": "Rap guanine nucleotide exchange factor 4 (Homo sapiens)",
    "Label": "inactive"
  },
  {
    "Compound": "Cc1ccc2[nH]cc(C(c3ccccc3)c3ccc(C)s3)c2c1 (stereo not drawn)",
    "Experimental target": "Rap guanine nucleotide exchange factor 4 (Homo sapiens)",
    "Label": "inactive"
  },
  {
    "Compound": "COc1ccccc1C(=O)NC(=O)Cn1nc(C)c([N+](=O)[O-])c1C",
    "Experimental target": "Rap guanine nucleotide exchange factor 4 (Homo sapiens)",
    "Label": "inactive"
  },
  {
    "Compound": "CN1CCN(C(CNC(=O)c2ccc(Br)o2)c2ccc(F)cc2)CC1 (stereo not drawn)",
    "Experimental target": "Rap guanine nucleotide exchange factor 4 (Homo sapiens)",
    "Label": "active"
  },
  {
    "Compound": "O=S(=O)(NCc1ccco1)c1ccc(Cl)cc1Cl",
    "Experimental target": "Rap guanine nucleotide exchange factor 4 (Homo sapiens)",
    "Label": "inactive"
  },
  {
    "Compound": "C/C(CC(=O)Nc1ccc2ccccc2c1)=N\\NC(=O)c1cnccn1",
    "Experimental target": "Rap guanine nucleotide exchange factor 4 (Homo sapiens)",
    "Label": "inactive"
  },
  {
    "Compound": "C(=C\\c1ccccc1)/CN1CCN(C(c2cc3ccccc3o2)c2nnnn2C2CCCC2)CC1 (stereo not drawn)",
    "Experimental target": "Rap guanine nucleotide exchange factor 4 (Homo sapiens)",
    "Label": "inactive"
  },
  {
    "Compound": "CCCc1[nH]nc2c1C(c1cccnc1)C(C#N)=C(N)O2 (stereo not drawn)",
    "Experimental target": "Rap guanine nucleotide exchange factor 4 (Homo sapiens)",
    "Label": "inactive"
  },
  {
    "Compound": "CC(C)OC(=O)c1c(-c2ccccc2)c(-c2ccccc2)nn(C)c1=O",
    "Experimental target": "Rap guanine nucleotide exchange factor 4 (Homo sapiens)",
    "Label": "inactive"
  },
  {
    "Compound": "COc1cccc(NC(=O)CN(C)C(=O)CNC(=O)c2ccc(Oc3ccccc3)cc2)c1",
    "Experimental target": "Rap guanine nucleotide exchange factor 4 (Homo sapiens)",
    "Label": "inactive"
  },
  {
    "Compound": "Clc1ccc2nc(C3CCCCC3)c(CC3CCCCC3)n2c1",
    "Experimental target": "Rap guanine nucleotide exchange factor 4 (Homo sapiens)",
    "Label": "inactive"
  },
  {
    "Compound": "O=C1c2ccccc2C(=O)N1c1nc(-c2cccs2)cs1",
    "Experimental target": "Rap guanine nucleotide exchange factor 4 (Homo sapiens)",
    "Label": "active"
  },
  {
    "Compound": "CCOc1ccc(N2C(=O)Nc3ccccc3C2(O)C(=O)NCc2ccc(C)cc2)cc1 (stereo not drawn)",
    "Experimental target": "Rap guanine nucleotide exchange factor 4 (Homo sapiens)",
    "Label": "inactive"
  },
  {
    "Compound": "CC1CCc2[nH]c3ccc(C(=O)N(C)CC(=O)Nc4ccccc4Br)cc3c2C1 (stereo not drawn)",
    "Experimental target": "Rap guanine nucleotide exchange factor 4 (Homo sapiens)",
    "Label": "inactive"
  },
  {
    "Compound": "CN(C)c1ccccc1C(=O)N1CCCC(C(=O)c2ccc3ccccc3c2)C1 (stereo not drawn)",
    "Experimental target": "Rap guanine nucleotide exchange factor 4 (Homo sapiens)",
    "Label": "inactive"
  },
  {
    "Compound": "CC(=O)Nc1ccc(SC[C@H](C)CN2CC[C@H](C(C)(C)C)CCC2=O)cc1",
    "Experimental target": "Rap guanine nucleotide exchange factor 4 (Homo sapiens)",
    "Label": "active"
  },
  {
    "Compound": "Cc1ccc2nc3sc(C(=O)N4CCCc5ccccc54)c(N)c3cc2c1",
    "Experimental target": "Rap guanine nucleotide exchange factor 4 (Homo sapiens)",
    "Label": "inactive"
  },
  {
    "Compound": "Cc1ccc(CN2C(=O)CSC2c2ccccc2F)cc1 (stereo not drawn)",
    "Experimental target": "Rap guanine nucleotide exchange factor 4 (Homo sapiens)",
    "Label": "active"
  },
  {
    "Compound": "CCCCN1C(=O)C(C(=O)OCc2ccccc2)CC2=C1CCCC2=O (stereo not drawn)",
    "Experimental target": "Rap guanine nucleotide exchange factor 4 (Homo sapiens)",
    "Label": "inactive"
  },
  {
    "Compound": "CN(Cc1ccc(F)cc1)C(=O)c1cccc(OCc2ccccc2)c1",
    "Experimental target": "Rap guanine nucleotide exchange factor 4 (Homo sapiens)",
    "Label": "inactive"
  },
  {
    "Compound": "CSCCC(NC(=O)c1ccc(Cl)cc1)C(=O)OCC(=O)N1CCCC1=O (stereo not drawn)",
    "Experimental target": "Rap guanine nucleotide exchange factor 4 (Homo sapiens)",
    "Label": "inactive"
  },
  {
    "Compound": "COC(=O)C1=CN(Cc2ccc(OC)c(OC)c2)C=C(C(=O)OC)C1c1cccc(F)c1",
    "Experimental target": "Rap guanine nucleotide exchange factor 4 (Homo sapiens)",
    "Label": "inactive"
  },
  {
    "Compound": "C=CC[C@@H](CC(=O)NCCO)C(=O)N[C@@H](C)COC(=O)[C@H](CC=C)CC(=O)OC(C)(C)C",
    "Experimental target": "Rap guanine nucleotide exchange factor 4 (Homo sapiens)",
    "Label": "inactive"
  },
  {
    "Compound": "Fc1ccccc1N1CCN(c2ncnc3onc(-c4ccc(Cl)cc4)c23)CC1",
    "Experimental target": "Rap guanine nucleotide exchange factor 4 (Homo sapiens)",
    "Label": "inactive"
  },
  {
    "Compound": "Oc1ccc(N=Cc2c(O)ccc3ccccc23)cc1",
    "Experimental target": "Rap guanine nucleotide exchange factor 4 (Homo sapiens)",
    "Label": "inactive"
  },
  {
    "Compound": "N#CC(C(=O)NCc1ccco1)c1nc2ccccc2nc1N1CCOCC1 (stereo not drawn)",
    "Experimental target": "Rap guanine nucleotide exchange factor 4 (Homo sapiens)",
    "Label": "inactive"
  },
  {
    "Compound": "CCOc1ccc(-n2c(SCC(=O)Nc3ccccc3OC)nc3c(oc4ccccc43)c2=O)cc1",
    "Experimental target": "Rap guanine nucleotide exchange factor 4 (Homo sapiens)",
    "Label": "inactive"
  },
  {
    "Compound": "O=C(NCc1ccc(F)cc1)c1ccc2c(=O)n3c(nc2c1)CCCCC3",
    "Experimental target": "Rap guanine nucleotide exchange factor 4 (Homo sapiens)",
    "Label": "inactive"
  },
  {
    "Compound": "CCOC(=O)C1=C(C)Nc2nnnn2C1c1ccc(OC)c(Br)c1 (stereo not drawn)",
    "Experimental target": "Rap guanine nucleotide exchange factor 4 (Homo sapiens)",
    "Label": "inactive"
  },
  {
    "Compound": "COc1ccc(S(=O)(=O)N2CCC[C@H]2C(=O)N2CCC[C@H]2C(=O)NCc2ccccc2)cc1C",
    "Experimental target": "Rap guanine nucleotide exchange factor 4 (Homo sapiens)",
    "Label": "inactive"
  },
  {
    "Compound": "Cc1ccc(/C=C/C(=O)c2ccccc(=O)c2O)c(C)c1",
    "Experimental target": "Rap guanine nucleotide exchange factor 4 (Homo sapiens)",
    "Label": "inactive"
  },
  {
    "Compound": "Cc1ccc(NC(=O)Cn2nc(C)c3nn(-c4ccc(Cl)cc4)c(C)c3c2=O)cc1F",
    "Experimental target": "Rap guanine nucleotide exchange factor 4 (Homo sapiens)",
    "Label": "inactive"
  },
  {
    "Compound": "CC(C)CNC(=O)c1[nH]c(C(F)(F)F)nc1-c1ccccc1",
    "Experimental target": "Rap guanine nucleotide exchange factor 4 (Homo sapiens)",
    "Label": "inactive"
  }
]
